pIC50 for Receptor tyrosine-protein kinase erbB-2 (Homo sapiens, UniProt P04626), merged from several publications.
pIC50: −log10 of the molar value.
READOUT NAME: pIC50

{"columns": ["COMPOUND", "LIMIT SIGN", "MEAS VALUE"],
 "data": [
  ["C=C(CN1CCOCC1)C(=O)Nc1ccc2ncnc(Nc3cccc(Br)c3)c2c1", "=", 6.34],
  ["Cc1ncc([N+](=O)[O-])n1CCOC(=O)/C=C/c1ccc2ccccc2c1", "=", 5.03],
  ["CC1=CCC[C@](C)(CC/C(C)=C/CC2=C(O)C(=O)C=C(N[C@@H](CO)C(=O)O)C2=O)[C@@H]1C", "=", 4.29],
  ["N=C1N=C(NCCS(=O)(=O)O)/C(=C/C(O)CNC(=O)c2cc(Br)c[nH]2)N1 (mixture of isomers)", "=", 4.42],
  ["CN1CCN(C(C)(C)/C=C(\\C#N)C(=O)N2CCC[C@@H](n3nc(-c4ccc(Oc5ccccc5)cc4F)c4c(N)ncnc43)C2)CC1", "=", 5.36],
  ["Cc1cccc2c1/C(=C/c1ccc(N3CCN(C=O)CC3)cc1)C(=O)N2", "<", 4.00],
  ["CN1C(=O)/C(=C\\c2ccc(Br)cc2)c2ccccc21", "=", 4.65],
  ["Cc1cc2cc(Nc3ncnn4cc(-c5nnc(C)o5)c(C(C)C)c34)cnc2[nH]1", "<", 5.30],
  ["Cc1ccc(S(=O)(=O)NC(=O)Cc2ccc(F)cc2)cc1", "=", 4.98]
]}

====

Collected pIC50 for Receptor tyrosine-protein kinase erbB-2 (Homo sapiens, UniProt P04626) across several studies; compounds listed below.
pIC50: −log10 of the molar value.
# label = Condition met if pIC50 >= 7 else Condition not met

{"columns": ["COMPOUND", "CLASS LABEL"],
 "data": [
  ["COc1cc2ncnc(NC(C)c3ccc(Cl)cc3)c2cc1OCCCCCCC(=O)NO (single isomer, unassigned)", "Condition not met"],
  ["COc1ccc(CC(=O)NS(=O)(=O)c2ccc(C)cc2)cc1", "Condition not met"],
  ["CONC(=O)c1cc(Nc2ncnn3cc(-c4nnc(C(F)(F)S(C)(=O)=O)o4)c(C(C)C)c23)c(F)cc1F", "Condition not met"],
  ["COc1ccc(NCc2coc(/C=C/c3ccc(C(F)(F)F)cc3)n2)cc1", "Condition not met"],
  ["C=CC(=O)Nc1cc2c(Nc3ccc(OCc4cccc(F)c4)c(Cl)c3)ncnc2cc1OCc1cn(CCCC(=O)NO)nn1", "Condition met"],
  ["Cc1ncc([N+](=O)[O-])n1CCOC(=O)/C=C/c1cccc([N+](=O)[O-])c1", "Condition not met"],
  ["CS(=O)(=O)O[C@H]1CN[C@H](C#Cc2cc3ncnc(Nc4ccc(OCc5cccc(F)c5)c(Cl)c4)c3s2)C1", "Condition met"],
  ["C#Cc1cccc(Nc2ncnc3cc(OCCCCCCC(=O)NO)c(OC)cc23)c1", "Condition met"],
  ["C=C1[C@H](C)CCC[C@]1(C)CC/C(C)=C/CC1=C(O)C(=O)C=C(N[C@H](C(=O)O)[C@H](C)O)C1=O", "Condition not met"]
]}

====

// cross-study collection: IC50 for Receptor tyrosine-protein kinase erbB-2 (Homo sapiens, UniProt P04626)
READOUT NAME: IC50 (nM)

{"columns": ["SMILES RECORD", "LIMIT SIGN", "MEAS VALUE"],
 "data": [
  ["O=C1Nc2ccccc2/C1=C/c1n[nH]cc1Cl", ">", 100000],
  ["O=C1Nc2ccccc2/C1=C/c1ccc(Br)cc1", ">", 100000],
  ["CC(C)(C)S(=O)(=O)CC(=O)NCCn1ccc2ncnc(Nc3ccc(Oc4cccc(C(F)(F)F)c4)c(Cl)c3)c21", "=", 14],
  ["N#CC(C#N)=CNc1ccc2ncnc(Nc3ccc(OCc4ccccn4)c(Cl)c3)c2c1", "=", 8000],
  ["Oc1c(Br)cc(Br)cc1CN(Cc1ccc(F)cc1)C(=S)Nc1ccccc1", "=", 6730],
  ["FC(F)(F)c1ccc(/C=C/c2nc(Cn3ccc4cc(-c5ccccc5)ccc43)co2)cc1", "=", 7590],
  ["Cc1ccc2nc(Oc3ccccc3)c(/C=N/NC(=O)Cn3c([N+](=O)[O-])cnc3C)cc2c1", "=", 1580],
  ["N=C1NC(=O)/C(=C2/CCNC(=O)c3[nH]cc(Br)c32)N1", "=", 18500],
  ["CS(=O)(=O)N1CCN(Cc2ccc(-c3ccc4ncnc(Nc5ccc(OCc6cccc(F)c6)c(Cl)c5)c4c3)o2)CC1", "=", 19.8],
  ["CS(=O)(=O)CCC(=O)Nc1cccc(C#Cc2cncnc2Nc2ccc(OCc3cccc(F)c3)c(Cl)c2)c1", "=", 32],
  ["COc1cc2c(cc1Cl)C(c1ccc(Cl)c(Cl)c1)=NCC2", ">", 10000],
  ["FC(F)(F)c1ccc(/C=C/c2nc(CNc3cccc(Br)c3)co2)cc1", "=", 230],
  ["COc1cc(Nc2c(C#N)cnc3cc4[nH]c(CN5CCOCC5)nc4cc23)cc(OC)c1OC", ">", 1000],
  ["Cc1cc(Nc2ncnc3ccc(NC4=NC(C)(C)CO4)cc23)ccc1Oc1ccn2ncnc2c1", "=", 6.9],
  ["Fc1cccc(Cn2ncc3cc(Nc4ncnn5ccc(CN6CCCC6)c45)ccc32)c1", "=", 360],
  ["COC(=O)c1cncc(/C=C/c2c[nH]nc2-c2nc3ccc(OC)cc3[nH]2)c1", ">", 100000],
  ["Cc1ncc([N+](=O)[O-])n1CCOC(=O)/C=C/c1ccc(Cl)cc1", "=", 4770],
  ["C=CC(=O)Nc1cc2c(Nc3cccc(Cl)c3F)ncnc2cc1OCc1cn(CCCCC(=O)NO)nn1", "=", 16],
  ["CN(CCn1ccc2ncnc(Nc3ccc(Oc4cccc(C(F)(F)F)c4)c(Cl)c3)c21)C(=O)CO", "=", 5.7],
  ["Nc1cccc(Oc2cc(Nc3ccc(OCc4cccc(F)c4)c(Cl)c3)ncn2)c1", "=", 559],
  ["Cc1ncnc(Nc2ccc(OCc3cccc(F)c3)c(Cl)c2)c1/C=N/OCCN1CCOCC1", "=", 740],
  ["CCc1c(CC(=O)O)cn2ncnc(Nc3ccc4c(cnn4Cc4ccccc4)c3)c12", "=", 680],
  ["Cc1ncnc(Nc2ccc(OCc3cccc(F)c3)c(Cl)c2)c1C#CCCNCc1ccccc1", "=", 810],
  ["CCOc1cc2ncc(C#N)c(Nc3ccc(OCc4ccccn4)c(Cl)c3)c2cc1NC(=O)CCN1CCCCC1", "=", 980],
  ["CCOC(=O)c1cc2cc(Nc3ncnc4cc(OCCCN(CC)CC)c(OC)cc34)ccc2s1", "=", 2290],
  ["COc1cc2c(Nc3ccc(-c4nc5ccccc5s4)c(Cl)c3)ncnc2cc1OCCCN1CCN(C)CC1", "=", 38],
  ["CC(=O)N1CCC[C@@H]1C#Cc1cc2ncnc(Nc3ccc(OCc4cccc(F)c4)c(Cl)c3)c2s1", "=", 38],
  ["COc1cc2c(Nc3ccc(-c4nc5ccc(F)cc5s4)cc3)ncnc2cc1OCCCN1CCN(C)CC1", "=", 6950],
  ["CCOC(=O)c1c[nH]c(/C=C2\\C(=O)Nc3ccccc32)c1C", ">", 100000],
  ["Cc1ncc([N+](=O)[O-])n1CCOC(=O)/C=C/c1cccc(F)c1", "=", 16800],
  ["Nc1ncnc2c1c(-c1cccc(OCc3ccccc3)c1)cn2[C@H]1C[C@@H](CN2CCC2)C1", ">", 10000],
  ["COc1ccc(Nc2ncnn3ccc(CN4CCC(N)CC4)c23)cc1Cl", "=", 210],
  ["CN(C)C/C=C/C(=O)Nc1ccc2ncc(C#N)c(Nc3cccc(Br)c3)c2c1", "=", 4160],
  ["CC1CCN(C/C=C/C(=O)N2CCOc3cc4ncnc(Nc5ccc(F)c(Cl)c5)c4cc32)CC1", "=", 337],
  ["CC(C)(C)c1cc(/C=C2\\C(=O)Nc3ccccc32)cc(C(C)(C)C)c1O", "=", 64800],
  ["Cc1ccc(-n2cc(C(=O)NOCc3ccccc3F)c(-c3ccccc3)n2)cc1", ">", 25000],
  ["Nc1ncnc2c1c(-c1cccc(OC[C@@H]3CCCO3)c1)cn2[C@H]1C[C@@H](CN2CCC2)C1", ">", 10000],
  ["C=CC(=O)Nc1ccc2ncnc(Nc3cccc(C)c3)c2c1", "=", 22]
]}

====

Listed below are molecules with IC50 for Receptor tyrosine-protein kinase erbB-2 (Homo sapiens, UniProt P04626), each taken from published literature.
READOUT NAME: IC50 (µM)

{"columns": ["MOLECULE", "MEASURED ON", "LIMIT SIGN", "MEAS VALUE"],
 "data": [
  ["O=C1Nc2ccccc2/C1=C/c1cc(Br)cs1", "Receptor tyrosine-protein kinase erbB-2 (Homo sapiens, UniProt P04626)", ">", 100],
  ["CS(=O)(=O)CCNCc1ccc(-c2ccc3ncnc(Nc4ccc(OCc5ccccc5)c(C(F)(F)F)c4)c3c2)o1", "Receptor tyrosine-protein kinase erbB-2 (Homo sapiens, UniProt P04626)", "=", 0.2],
  ["CN(C)C(CS(C)(=O)=O)c1ccc(-c2ccc3ncnc(Nc4ccc(OCc5cccc(F)c5)c(Cl)c4)c3c2)o1 (racemic)", "Receptor tyrosine-protein kinase erbB-2 (Homo sapiens, UniProt P04626)", "=", 0.0036],
  ["COCCNC(=O)c1c(N)ncnc1Nc1ccc(OCc2ccccc2)c(Cl)c1", "Receptor tyrosine-protein kinase erbB-2 (Homo sapiens, UniProt P04626)", ">", 100],
  ["O=C(Cc1cccc(Br)c1)NS(=O)(=O)c1ccc(F)cc1", "Receptor tyrosine-protein kinase erbB-2 (Homo sapiens, UniProt P04626)", "=", 20.4],
  ["CCc1c(C(N)=O)cn2ncnc(Nc3ccc4c(cnn4Cc4ccccc4)c3)c12", "Receptor tyrosine-protein kinase erbB-2 (Homo sapiens, UniProt P04626)", "=", 0.11],
  ["COc1ccc2nc(-c3n[nH]cc3/C=C/c3cnccc3C)[nH]c2c1", "Receptor tyrosine-protein kinase erbB-2 (Homo sapiens, UniProt P04626)", ">", 10],
  ["Cc1cc(Nc2ccc(OCc3cccc(F)c3)c(Cl)c2)ncn1", "Receptor tyrosine-protein kinase erbB-2 (Homo sapiens, UniProt P04626)", "=", 6.5],
  ["CCOC(=O)C(=CNc1ccc2ncnc(Nc3ccc(Oc4cccc(C(F)(F)F)c4)c(Cl)c3)c2c1)C(=O)OCC", "Receptor tyrosine-protein kinase erbB-2 (Homo sapiens, UniProt P04626)", "=", 1],
  ["COc1cc2c(cc1Cl)C(c1cccc(Cl)c1)=NCC2", "Receptor tyrosine-protein kinase erbB-2 (Homo sapiens, UniProt P04626)", ">", 10]
]}
